src = ChEMBL document CHEMBL1152427

targetOfAssay: 3-oxoacyl-[acyl-carrier-protein] synthase 3 (Escherichia coli) (UniProt C3TDZ2)
Sequence (whole entry): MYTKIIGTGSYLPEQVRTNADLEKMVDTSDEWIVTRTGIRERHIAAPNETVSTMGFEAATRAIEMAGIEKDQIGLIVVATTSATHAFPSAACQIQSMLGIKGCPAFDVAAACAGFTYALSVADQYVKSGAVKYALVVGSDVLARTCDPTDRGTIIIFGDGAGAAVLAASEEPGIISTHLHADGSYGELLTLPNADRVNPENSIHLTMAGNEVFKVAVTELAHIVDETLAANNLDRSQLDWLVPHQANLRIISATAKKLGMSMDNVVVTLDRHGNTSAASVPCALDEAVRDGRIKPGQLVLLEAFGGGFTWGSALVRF
runDescription: Binding affinity to Escherichia coli KAS3 expressed in Escherichia coli BL21 (DE3) by NMR analysis
testReadout: K (×10⁶ /M)
Give bare numbers, in ×10⁶ /M.

O=c1c(O)c(-c2ccc(O)cc2)oc2ccc(O)cc12 6.22

Field: next molecule
Input COc1ccc(-c2coc3cc(O[C@@H]4O[C@H](CO)[C@@H](O)[C@@H](O)[C@@H]4O)cc(O)c3c2=O)cc1 , output reported K. 5.6

* * *

runDescription: Cytotoxicity against human HaCaT cells assessed as cell survival at 16 uM after 24 hrs by MTT assay
Type: cell-based
runConditions: read-out: Survival
testReadout: viability at 24 h, 16 µM (%)
One number for each entry, in %.

Provide measured viability at 24 h, 16 µM value, entry: O=c1c(O)c(-c2ccccc2)oc2ccc(O)cc12 90

* * *

System: Escherichia coli
runDescription: Antibacterial activity against Escherichia coli after 20 hrs by twofold serial broth dilution method
Format: functional
testReadout: MIC (µM)
One number for each entry, in µM.

compound	testReadout	measValue
C=C/C(C)=C/[C@@]1(C)SC(=O)C(C)=C1O [THIOLACTOMYCIN]	MIC	128

Would you please give the reported MIC of O=C(CCc1ccc(O)cc1)c1c(O)cc(O)cc1O [PHLORETIN] with Escherichia coli? 128

* * *

targetOfAssay: 3-oxoacyl-[acyl-carrier-protein] synthase 3 (Escherichia coli) (UniProt C3TDZ2)
Sequence (whole entry): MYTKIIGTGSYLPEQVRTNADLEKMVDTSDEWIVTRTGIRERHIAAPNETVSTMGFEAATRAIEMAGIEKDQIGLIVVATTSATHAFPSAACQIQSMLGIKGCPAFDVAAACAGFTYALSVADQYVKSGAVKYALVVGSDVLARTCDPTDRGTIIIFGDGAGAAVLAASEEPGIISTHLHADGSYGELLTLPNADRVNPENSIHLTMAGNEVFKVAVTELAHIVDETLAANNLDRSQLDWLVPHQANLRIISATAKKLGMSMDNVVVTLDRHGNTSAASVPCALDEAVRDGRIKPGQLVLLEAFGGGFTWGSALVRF
runDescription: Binding affinity to Escherichia coli KAS3 expressed in Escherichia coli BL21 (DE3) by NMR analysis
testReadout: K

Answered cases to consult:
molecule	K
O=c1c(O)c(-c2ccccc2)oc2ccc(O)cc12	1.32 ×10⁴ /M
C=C/C(C)=C/[C@@]1(C)SC(=O)C(C)=C1O [THIOLACTOMYCIN]	1.18 ×10⁴ /M

Consider now this further molecule.
In one line, give reported K of the entry O=C(CCc1ccc(O)cc1)c1c(O)cc(O)cc1O [PHLORETIN] . 2.38 ×10⁷ /M
